For each entry below, report its MIC80 value.
- Test system: Human rhinovirus sp.
- Run description: Minimum inhibitory concentration which inhibits 80% of serotypes was determined
- Type: functional
The response must be a number in µM with no trailing unit.

Please state recorded MIC80 (tested on Human rhinovirus sp.) of `Cc1cc(CCCCCCOc2c(C)cc(-c3nnn(C)n3)cc2C)on1`
0.73

Please state recorded MIC80 (tested on Human rhinovirus sp.) of `Cc1cc(-c2nnn(C)n2)cc(C)c1OCCCc1cc(CCO)no1`
1.09

Please state recorded MIC80 (tested on Human rhinovirus sp.) of `COc1cc(CCCOc2c(C)cc(-c3nnn(C)n3)cc2C)on1`
0.33

Please state recorded MIC80 (tested on Human rhinovirus sp.) of `CCn1nnc(-c2cc(C)c(OCCCc3cc(C)no3)c(C)c2)n1`
0.25

Please state recorded MIC80 (tested on Human rhinovirus sp.) of `COCCc1cc(CCCOc2c(C)cc(-c3nnn(C)n3)cc2C)on1`
0.3

Please state recorded MIC80 (tested on Human rhinovirus sp.) of `CCc1cc(CCCOc2c(C)cc(-c3nnn(C)n3)cc2C)on1`
0.41

Please state recorded MIC80 (tested on Human rhinovirus sp.) of `Cc1cc(-c2nnn(C)n2)cc(C)c1OCCCc1cc(CC(C)C)no1`
1.5

Please state recorded MIC80 (tested on Human rhinovirus sp.) of `CCCOc1cc(CCCOc2c(C)cc(-c3nnn(C)n3)cc2C)on1`
0.6

Please state recorded MIC80 (tested on Human rhinovirus sp.) of `Cc1cc(-c2nnn(C)n2)cc(C)c1OCCCc1cc(CO)no1`
3.4

Please state recorded MIC80 (tested on Human rhinovirus sp.) of Cc1cc(-c2nnn(C)n2)cc(C)c1OCCCc1cc(C(C)O)no1 (stereo unspecified)
1.1

Please state recorded MIC80 (tested on Human rhinovirus sp.) of `Cc1cc(CCCCCCCOc2c(C)cc(-c3nnn(C)n3)cc2C)on1`
1.6

###

For each entry below, report its log10 of MIC50 value.
- System: rhinovirus B14
- Run description: In vitro antiviral activity against human rhinovirus-14 using plaque reduction assay
- Format: functional, human rhinovirus type 14
- Condition label: Rhinovirus B
All values: base-10 log of MIC50 in µM.

Please state recorded log10 of MIC50 (tested on rhinovirus B14) of `CCCc1cc(CCCOc2c(C)cc(-c3nnn(C)n3)cc2C)on1`
-0.92

Please state recorded log10 of MIC50 (tested on rhinovirus B14) of `Cc1cc(-c2nnn(C)n2)cc(C)c1OCCCc1cc(CCCO)no1`
-0.77

Please state recorded log10 of MIC50 (tested on rhinovirus B14) of `Cc1cc(-c2nnn(C)n2)cc(C)c1OCCCCCc1cc(COCCOCCOCCO)no1`
0.02

Please state recorded log10 of MIC50 (tested on rhinovirus B14) of Cc1cc(-c2nnn(C)n2)cc(C)c1OCCCc1cc(CC(C)O)no1 (stereo not drawn)
0.26

Please state recorded log10 of MIC50 (tested on rhinovirus B14) of `Cc1cc(CCCCCCOc2c(C)cc(-c3nnn(C)n3)cc2C)on1`
0.28

Please state recorded log10 of MIC50 (tested on rhinovirus B14) of `CCn1nnc(-c2cc(C)c(OCCCc3cc(C)no3)c(C)c2)n1`
-0.10

Please state recorded log10 of MIC50 (tested on rhinovirus B14) of `Cc1cc(CCCOc2c(C)cc(-c3nnn(C)n3)cc2C)on1`
0.24

Please state recorded log10 of MIC50 (tested on rhinovirus B14) of `Cc1cc(-c2nnn(C)n2)cc(C)c1OCCCc1cc(CC(C)C)no1`
-0.49

Please state recorded log10 of MIC50 (tested on rhinovirus B14) of `COCCOCOCc1cc(CCCCCOc2c(C)cc(-c3nnn(C)n3)cc2C)on1`
-0.48

Please state recorded log10 of MIC50 (tested on rhinovirus B14) of `Cc1cc(-c2nnn(C)n2)cc(C)c1OCCCc1cc(CO)no1`
0.53

Please state recorded log10 of MIC50 (tested on rhinovirus B14) of `COCCc1cc(CCCOc2c(C)cc(-c3nnn(C)n3)cc2C)on1`
-1.30

Please state recorded log10 of MIC50 (tested on rhinovirus B14) of `CC(=O)c1cc(CCCOc2c(C)cc(-c3nnn(C)n3)cc2C)on1`
-0.02

Please state recorded log10 of MIC50 (tested on rhinovirus B14) of `Cc1cc(CCCCCOc2c(Cl)cc(-c3nnn(C)n3)cc2Cl)on1`
-0.42

Please state recorded log10 of MIC50 (tested on rhinovirus B14) of `CCCOc1cc(CCCOc2c(C)cc(-c3nnn(C)n3)cc2C)on1`
-1.10

Please state recorded log10 of MIC50 (tested on rhinovirus B14) of `Cc1cc(-c2nnn(C)n2)cc(C)c1OCCCCCc1cc(CO)no1`
-0.21

Please state recorded log10 of MIC50 (tested on rhinovirus B14) of `Cc1cc(-c2nnn(C)n2)cc(C)c1OCCCc1cc(C(C)C)no1`
-0.14

Please state recorded log10 of MIC50 (tested on rhinovirus B14) of Cc1cc(-c2nnn(C)n2)cc(C)c1OCCCc1cc(C(C)O)no1 (stereo not drawn)
0.15

Please state recorded log10 of MIC50 (tested on rhinovirus B14) of `COc1cc(CCCOc2c(C)cc(-c3nnn(C)n3)cc2C)on1`
0.15

Please state recorded log10 of MIC50 (tested on rhinovirus B14) of `CCCCc1cc(CCCOc2c(C)cc(-c3nnn(C)n3)cc2C)on1`
-0.96

Please state recorded log10 of MIC50 (tested on rhinovirus B14) of `CCOc1cc(CCCOc2c(C)cc(-c3nnn(C)n3)cc2C)on1`
-1.00

Please state recorded log10 of MIC50 (tested on rhinovirus B14) of `CCc1cc(CCCOc2c(C)cc(-c3nnn(C)n3)cc2C)on1`
-0.30

Please state recorded log10 of MIC50 (tested on rhinovirus B14) of `CCn1nnc(-c2cc(C)c(OCCCCCc3cc(C)no3)c(C)c2)n1`
-0.14

Please state recorded log10 of MIC50 (tested on rhinovirus B14) of `Cc1cc(-c2nnn(C)n2)cc(C)c1OCCCc1cc(C2CC2)no1`
-0.32
